Assay: Rat PK assay, intravenous administration
Assay type: in vivo
Conditions: male, Sprague-Dawley, plasma, SD rats, 1 mg/kg single dose
property-name: clearance
Returns: string containing the numeric result and its unit.

{"columns": ["compound", "property-name", "result"],
 "data": [
  ["Cl.O=P(O)(c1ccccc1)c1ccc2c(n1)CCNC2 [Example 17]", "clearance", "0.35 L/h/kg"],
  ["Cl.O=P(O)(O)c1ccc2c(n1)CC(COCCCO)NC2 (stereo not shown) [Example 22]", "clearance", "0.179 L/h/kg"],
  ["Cl.O=P(O)(O)c1nc2c(cc1F)CNCC2 [Example 2]", "clearance", "0.0333 L/h/kg"],
  ["NC[C@H]1CC[C@H](C(=O)O)CC1 [Tranexamic acid, reference compound]", "clearance", "0.347 L/h/kg"],
  ["CCOP(=O)(O)c1ccc2c(n1)CCNC2.Cl [Example 15]", "clearance", "0.351 L/h/kg"],
  ["Cl.O=P(O)(O)c1ccc2c(n1)C(O)CNC2 (stereo not shown) [Example 8]", "clearance", "0.146 L/h/kg"]
]}

INPUT: Can you look up the measured clearance of Cl.O=P(O)(O)c1ccc2c(n1)CCNC2 [Example 1] for me?
OUTPUT: 0.0685 L/h/kg

====

Experiment: Rat PK assay, intravenous administration
Assay type: in vivo
Details: male, Sprague-Dawley, plasma, SD rats, 1 mg/kg single dose
property-name: half-life (min)
Answer in min, number only, no unit symbol.

INPUT: Can you look up the measured half-life of `Cl.O=P(O)(O)c1ccc2c(n1)CCNC2` for me?
OUTPUT: 118

INPUT: Another compound to check: Cl.O=P(O)(O)c1ccc2c(n1)CC(COCCCO)NC2 (stereo not shown)
OUTPUT: 215

====

Assay: Rat PK assay, intravenous administration
Format: in vivo
Conditions: male, Sprague-Dawley, plasma, SD rats, 1 mg/kg single dose
Please mark MET if the recorded Cmax is equal to or greater than 7000 ng/mL, and NOT MET if it falls below.

Example results:
{"columns": ["compound", "category-label"],
 "data": [
  ["Cl.O=P(O)(c1ccccc1)c1ccc2c(n1)CCNC2", "NOT MET"],
  ["Cl.O=P(O)(O)c1nc2c(cc1F)CNCC2", "MET"]
]}

INPUT: Threshold query (Cmax >= 7000 ng/mL) on `CCOP(=O)(O)c1ccc2c(n1)CCNC2.Cl`
OUTPUT: NOT MET

INPUT: Another compound to check: `Cl.O=P(O)(O)c1ccc2c(n1)CCNC2`
OUTPUT: MET

INPUT: Another compound to check: Cl.O=P(O)(O)c1ccc2c(n1)C(O)CNC2 (stereo not shown)
OUTPUT: NOT MET

INPUT: Another compound to check: NC[C@H]1CC[C@H](C(=O)O)CC1 [Tranexamic acid, reference compound]
OUTPUT: NOT MET

====

Assay: Rat PK assay, intravenous administration
Type: in vivo
Conditions: male, Sprague-Dawley, plasma, SD rats, 1 mg/kg single dose
Field 'label' (enum: T / F). Set to T when AUC is strictly under 6000 ng·h/mL; else F.

Example results:
{"columns": ["compound", "category-label"],
 "data": [
  ["Cl.O=P(O)(O)c1ccc2c(n1)CCNC2 [Example 1]", "F"],
  ["Cl.O=P(O)(c1ccccc1)c1ccc2c(n1)CCNC2 [Example 17]", "T"],
  ["NC[C@H]1CC[C@H](C(=O)O)CC1 [Tranexamic acid, reference compound]", "T"],
  ["Cl.O=P(O)(O)c1ccc2c(n1)C(O)CNC2 (stereo not shown) [Example 8]", "F"],
  ["CCOP(=O)(O)c1ccc2c(n1)CCNC2.Cl [Example 15]", "T"]
]}

INPUT: Is the reported AUC for Cl.O=P(O)(O)c1nc2c(cc1F)CNCC2 [Example 2] strictly below 6000 ng·h/mL?
OUTPUT: F

INPUT: Another compound to check: Cl.O=P(O)(O)c1ccc2c(n1)CC(COCCCO)NC2 (stereo not shown) [Example 22]
OUTPUT: T

====

Experiment: Rat PK assay, intravenous administration
Type: in vivo
Details: male, Sprague-Dawley, plasma, SD rats, 1 mg/kg single dose
property-name: half-life (h)
Answer in h, number only, no unit symbol.

Observe how each entry below is paired with its result.
{"columns": ["molecule", "half-life / h"],
 "data": [
  ["CCOP(=O)(O)c1ccc2c(n1)CCNC2.Cl", 0.77],
  ["NC[C@H]1CC[C@H](C(=O)O)CC1 [Tranexamic acid, reference compound]", 1.28],
  ["Cl.O=P(O)(O)c1nc2c(cc1F)CNCC2", 4.15],
  ["Cl.O=P(O)(c1ccccc1)c1ccc2c(n1)CCNC2", 1.53]
]}

INPUT: Can you look up the measured half-life of Cl.O=P(O)(O)c1ccc2c(n1)C(O)CNC2 (centres unmarked) for me?
OUTPUT: 1.74
